assay type: physicochemical; settings: 40° C./75% RH, 1 w
Measure name: Final purity

- Molecule: "COCC1(O)CCC2(C)C(CCC3C2CCC2(C)C(C(=O)Cn4ccnc4)CCC32)C1.O=C(O)C(Cl)Cl (stereo not shown) [Dichloroacetate (Form A)]"
  Measure name: "Final purity"
  Measured value: 98.0
- Molecule: "COCC1(O)CCC2(C)C(CCC3C2CCC2(C)C(C(=O)Cn4ccnc4)CCC32)C1.O=C(O)c1cc(O)ccc1O (stereo not shown) [Gentisate salt (Form A)]"
  Measure name: "Final purity"
  Measured value: 97.6
- Molecule: "Br.COCC1(O)CCC2(C)C(CCC3C2CCC2(C)C(C(=O)Cn4ccnc4)CCC32)C1 (stereo not shown) [Compound 1 HBr (Form B)]"
  Measure name: "Final purity"
  Measured value: 98.9
- Molecule: "COC[C@@]1(O)CC[C@@]2(C)[C@@H](CC[C@@H]3[C@@H]2CC[C@]2(C)[C@@H](C(=O)Cn4ccnc4)CC[C@@H]32)C1.Cl [Hydrochloride (Form A)]"
  Measure name: "Final purity"
  Measured value: 99.4

* * *

experiment: Bulk density for salts of Compound 1; assay type: physicochemical; conditions: Form A
molecules and their reported Bulk Density
Measure name: Bulk Density

- Molecule: "O=C(O)CC(O)(CC(=O)O)C(=O)O [Citrate]"
  Measured value: "0.49 g/mL"
- Molecule: "COCC1(O)CCC2(C)C(CCC3C2CCC2(C)C(C(=O)Cn4ccnc4)CCC32)C1.O=P(O)(O)O (stereo not shown) [Phosphate]"
  Measured value: "0.15 g/mL"
- Molecule: "O=C(O)C(O)C(O)C(=O)O (stereo not shown) [Tartrate]"
  Measured value: "0.13 g/mL"
- Molecule: "Br.COC[C@@]1(O)CC[C@@]2(C)[C@@H](CC[C@@H]3[C@@H]2CC[C@]2(C)[C@@H](C(=O)Cn4ccnc4)CC[C@@H]32)C1"
  Measured value: "0.27 g/mL"

* * *

format: physicochemical; details: 1.2 million lux-hrs
Measure name: XRPD pattern

- Molecule: "COC[C@@]1(O)CC[C@@]2(C)[C@@H](CC[C@@H]3[C@@H]2CC[C@]2(C)[C@@H](C(=O)Cn4ccnc4)CC[C@@H]32)C1.O=C(O)CC(O)(CC(=O)O)C(=O)O [Compound 1 Citrate (Form B)]"
  Measure name: "XRPD pattern"
  Measured value: "Form B"
- Molecule: "Br.COCC1(O)CCC2(C)C(CCC3C2CCC2(C)C(C(=O)Cn4ccnc4)CCC32)C1 (stereo not shown) [Compound 1 HBr (Form B)]"
  Measure name: "XRPD pattern"
  Measured value: "Form B"

* * *

format: physicochemical; settings: 1.2 million lux-hrs

- Compound: "COC[C@@]1(O)CC[C@@]2(C)[C@@H](CC[C@@H]3[C@@H]2CC[C@]2(C)[C@@H](C(=O)Cn4ccnc4)CC[C@@H]32)C1.O=C(O)CC(=O)O [Malonate (Form A)]"
  XRPD patterns: "Form A"
- Compound: "COC[C@@]1(O)CC[C@@]2(C)[C@@H](CC[C@@H]3[C@@H]2CC[C@]2(C)[C@@H](C(=O)Cn4ccnc4)CC[C@@H]32)C1.Cl [Hydrochloride (Form A)]"
  XRPD patterns: "Form A"
- Compound: "COCC1(O)CCC2(C)C(CCC3C2CCC2(C)C(C(=O)Cn4ccnc4)CCC32)C1.O=CC(O)C(O)C(O)C(O)C(=O)O (centres unmarked) [Glucuronate (Form A)]"
  XRPD patterns: "Form A"
- Compound: "COCC1(O)CCC2(C)C(CCC3C2CCC2(C)C(C(=O)Cn4ccnc4)CCC32)C1.O=S(=O)(O)c1ccc2ccccc2c1 (centres unmarked) [Napsylate (Form A)]"
  XRPD patterns: "Form A"
- Compound: "COCC1(O)CCC2(C)C(CCC3C2CCC2(C)C(C(=O)Cn4ccnc4)CCC32)C1.O=S(=O)(O)CCO (centres unmarked) [Isethionate (Form A)]"
  XRPD patterns: "Form A"
- Compound: "COC[C@@]1(O)CC[C@@]2(C)[C@@H](CC[C@@H]3[C@@H]2CC[C@]2(C)[C@@H](C(=O)Cn4ccnc4)CC[C@@H]32)C1.O=C1O[C@H]([C@@H](O)CO)C(O)=C1O [Ascorbate (Form A)]"
  XRPD patterns: "Form A"
- Compound: "COC[C@@]1(O)CC[C@@]2(C)[C@@H](CC[C@@H]3[C@@H]2CC[C@]2(C)[C@@H](C(=O)Cn4ccnc4)CC[C@@H]32)C1.O=S(=O)(O)c1ccccc1 [Besylate (Form A)]"
  XRPD patterns: "Form A"
- Compound: "COCC1(O)CCC2(C)C(CCC3C2CCC2(C)C(C(=O)Cn4ccnc4)CCC32)C1.Cc1ccc(S(=O)(=O)O)cc1 (centres unmarked) [Tosylate (Form A)]"
  XRPD patterns: "Form A"
- Compound: "COC[C@@]1(O)CC[C@@]2(C)[C@@H](CC[C@@H]3[C@@H]2CC[C@]2(C)[C@@H](C(=O)Cn4ccnc4)CC[C@@H]32)C1.O=P(O)(O)O [Phosphate (Form A)]"
  XRPD patterns: "Form A"
- Compound: "COCC1(O)CCC2(C)C(CCC3C2CCC2(C)C(C(=O)Cn4ccnc4)CCC32)C1.O=C(O)c1cc(O)ccc1O (centres unmarked) [Gentisate salt (Form A)]"
  XRPD patterns: "Form A"

Where do these numbers come from? They come from patent US10927141B2.
